These measurements were taken from patent US12258328B2.

TARGET_SYSTEM: EGFR wildtype (Homo sapiens, UniProt P00533)
Sequence (P00533 25-1210): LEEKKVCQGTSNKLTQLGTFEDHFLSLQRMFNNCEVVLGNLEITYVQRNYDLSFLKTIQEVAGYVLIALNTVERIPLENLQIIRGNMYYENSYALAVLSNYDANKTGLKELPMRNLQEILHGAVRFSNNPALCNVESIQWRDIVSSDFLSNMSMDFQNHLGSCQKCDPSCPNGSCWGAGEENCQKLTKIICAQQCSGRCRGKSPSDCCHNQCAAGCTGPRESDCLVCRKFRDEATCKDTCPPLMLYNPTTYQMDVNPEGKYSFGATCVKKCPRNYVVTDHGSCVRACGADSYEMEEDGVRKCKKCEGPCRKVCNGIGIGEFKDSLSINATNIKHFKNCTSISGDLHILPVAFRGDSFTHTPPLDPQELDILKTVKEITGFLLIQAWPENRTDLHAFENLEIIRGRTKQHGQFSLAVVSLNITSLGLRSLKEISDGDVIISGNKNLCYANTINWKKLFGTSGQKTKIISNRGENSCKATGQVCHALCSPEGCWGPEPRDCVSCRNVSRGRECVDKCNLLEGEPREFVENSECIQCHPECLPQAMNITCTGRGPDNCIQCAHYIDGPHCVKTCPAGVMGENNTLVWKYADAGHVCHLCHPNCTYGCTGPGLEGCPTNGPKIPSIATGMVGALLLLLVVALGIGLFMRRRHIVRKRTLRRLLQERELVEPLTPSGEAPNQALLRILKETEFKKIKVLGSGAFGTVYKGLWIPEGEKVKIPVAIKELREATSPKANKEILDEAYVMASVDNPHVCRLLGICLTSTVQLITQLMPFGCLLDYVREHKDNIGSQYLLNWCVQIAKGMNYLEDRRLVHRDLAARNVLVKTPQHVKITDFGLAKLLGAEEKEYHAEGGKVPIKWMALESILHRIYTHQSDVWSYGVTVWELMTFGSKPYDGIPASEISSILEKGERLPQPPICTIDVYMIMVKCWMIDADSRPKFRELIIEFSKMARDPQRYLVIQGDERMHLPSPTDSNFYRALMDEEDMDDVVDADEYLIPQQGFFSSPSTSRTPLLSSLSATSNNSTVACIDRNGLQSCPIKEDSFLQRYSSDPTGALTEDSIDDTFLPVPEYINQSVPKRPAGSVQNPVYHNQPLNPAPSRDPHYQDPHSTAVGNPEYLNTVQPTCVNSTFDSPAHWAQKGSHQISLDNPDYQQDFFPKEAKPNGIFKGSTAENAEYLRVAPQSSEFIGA
TEST_NAME: Biochemical EGFR kinase assay (Lance Ultra TR-FRET), wildtype
CONDITIONS_USED: IC50 WT, 100 μM ATP
PROPERTY: IC50 (nM)

Solved entries (count: 2):
CN(C)C[C@H]1CC[C@@H](Nc2cc(Nc3ccnc(-c4cnn(S(=O)(=O)C5CC5)c4)n3)ncc2-c2ccc(C(C)(C)O)cn2)CC1 : 67.9
O=S(=O)(C1CC1)n1cc(-c2nccc(Nc3cc(N[C@H]4CC[C@@H](CO)CC4)c(-c4ccc(OCCO)cn4)cn3)n2)cn1 : 348

P: CC(C)(O)[C@H]1CC[C@@H](Nc2cc(Nc3ccnc(-c4cnn(S(=O)(=O)C5CC5)c4)n3)ncc2-c2ccc(OCCO)cn2)CC1
Q: CC(O)(c1ccc(-c2cnc(Nc3ccnc(-c4cnn(S(=O)(=O)C5CC5)c4)n3)cc2NC2CCC(CO)CC2)nc1)C(F)(F)F (stereo not drawn)
Q: Given the listed items, does P or Q have the lesser reported IC50? Which one? Tell me its label.
A: Q
